Where do these numbers come from? They come from ChEMBL document CHEMBL1201862.

System: 786-0
Measurement Protocol: NCI tumour cell line growth inhibition, 48 h
Activity calls are given as the source filed them. Rule as the data show it: active = GI50 up to about 1.1 µM and inactive = higher.
GI50 values by entry

Worked cases, GI50 given:
# Molecule, GI50
rows = [
    ("O=C1C=CC(O)C2C1CC13SSC4(CC5C(=O)C=CC(O)C5N4C1=O)C(=O)N23 (configuration not stated)", "0.0396 µM (active)"),
    ("O=C(CSc1ncccn1)N/N=C/c1ccccc1OCc1ccccc1", "34.6 µM (inactive)"),
    ("COc1ccc2nc3cc([N+](=O)[O-])ccc3c(NNc3ccc([N+](=O)[O-])cc3)c2c1", "36.9 µM (inactive)"),
    ("COc1ccc2c(c1)C1=NCCN(C)c3ccc([N+](=O)[O-])c(c31)N2", "0.43 µM (active)"),
    ("CC(CCCCNC(=O)OC(C)(C)C)NC(=O)NC(C)CCCCNC(=O)OC(C)(C)C (configuration not stated)", "> 100 µM (inactive)"),
    ("CC(C)(C)C1=CC(=N/N=c2\\scc(-c3ccccc3)n2-c2ccccc2)C=C(C(C)(C)C)C1=O", "> 100 µM (inactive)"),
    ("CC(C)NC1CCCCC2c3cc(F)ccc3[C@]12O (some centres not stated)", "> 100 µM (inactive)"),
    ("CC(=O)NCCCCCCNC(C)=O [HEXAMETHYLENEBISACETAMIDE]", "> 10000 µM (inactive)"),
]

Fill in reported GI50 for this entry: CC(C)Cn1cnc2c(NCC(C)O)nc3ccccc3c21 (configuration not stated) > 100 µM (inactive)

Fill in reported GI50 for this entry: `NS(=O)(=O)c1ccc(NC(=O)N/N=C/c2ccccc2O)cc1` 73.8 µM (inactive)

Fill in reported GI50 for this entry: O=S(=O)(O)C(Cc1nc2ccccc2[nH]1)S(=O)(=O)OCCC1S(=O)(=O)OCCOS1(=O)=O (configuration not stated) > 100 µM (inactive)

Fill in reported GI50 for this entry: `Cc1nc2c(=O)n(C)c(=O)nc-2n(CCO)c1C` > 100 µM (inactive)

---

System: K562
Measurement Protocol: NCI tumour cell line growth inhibition, 48 h
Calls of active or inactive are those of the source. Rule as the data show it: active = GI50 up to about 1.1 µM and inactive = higher.
Quantity Kind: GI50

Worked cases, GI50 given:
# Compound, Quantity Kind, Recorded Value
rows = [
    ("COc1ccc(C(=O)/C=C/c2ccc(OCC#N)cc2)cc1", "GI50", "28.2 µM (inactive)"),
    ("CCOC(=O)C1S/C(=N\\c2ccc(Cl)c(Cl)c2)N=C1C (stereo not given)", "GI50", "13.4 µM (inactive)"),
    ("O=c1[nH][nH]c(=O)n1Cc1cccc(Cn2c(=O)[nH][nH]c2=O)c1", "GI50", "> 100 µM (inactive)"),
]

State the measured GI50 (K562) of `CCOC(=O)C(C)(c1c(C)[nH]c2ccccc12)c1c(C)[nH]c2ccccc12` 8.36 µM (inactive)

State the measured GI50 (K562) of `CN1CCN([C@H]2C[C@H]3[C@@H]4CC=C5C[C@@H](N6CCCC6)CC[C@]5(C)[C@H]4CC[C@]3(C)[C@H]2O)CC1` 14.9 µM (inactive)

State the measured GI50 (K562) of `Cc1cc2c(c(C)c1O)C(C)(C)CN2C(=O)C(C)(C)C` 41.5 µM (inactive)
